system: TK-10; assay: NCI tumour cell line growth inhibition, 48 h
Active and inactive are the calls of the source. No stated cut-off is given here; in the data, active = GI50 up to about 1.1 µM and inactive = higher.
outcome measure: GI50

smiles_code=CN1CCN(Cc2nc3cccc4c3c([n+]2[O-])-c2ccccc2-4)CC1 observed_result="43.5 µM (inactive)"
smiles_code=CCOC(=O)NC(=O)c1cn(CCCOC(=O)CCCCCCCCC(=O)OCCCn2cc(C(=O)NC(=O)OCC)c(=O)[nH]c2=O)c(=O)[nH]c1=O observed_result="22.3 µM (inactive)"
smiles_code=O=C(O)c1ccccc1C1c2ccc(Cl)cc2Oc2cc(Cl)ccc21 observed_result="> 100 µM (inactive)"

----------
test system: SF-268; test: NCI tumour cell line growth inhibition, 48 h
Active and inactive are the calls of the source. No stated cut-off is given here; in the data, active = GI50 up to about 1.1 µM and inactive = higher.
outcome measure: GI50

molecule=O=[N+]([O-])c1ccc(Sc2c3ccccc3nc3cc(Cl)ccc23)cc1 observed_result="> 10 µM (inactive)"
molecule=C[C@@H]1O[C@]2(O)[C@@H]3CCCN3S(=O)(=O)CCN2C1=O observed_result="> 100 µM (inactive)"
molecule="C/C=C/C(C#N)O[Si](C)(C)C (stereo not given)" observed_result="> 100 µM (inactive)"
molecule=O=C1OC(c2ccc(O)cc2)(c2ccc(O)cc2)c2ccc(Cl)c3cccc1c23.O=C1OC(c2ccc(O)cc2)(c2ccc(O)cc2)c2cccc3c(Cl)ccc1c23 observed_result="15.9 µM (inactive)"
molecule=Cc1cccc(N/C(Sc2ccccc2)=C(/C(Cl)=C(Cl)Cl)[N+](=O)[O-])c1 observed_result="17.8 µM (inactive)"
molecule=CC(C)N1CCN(c2ccncc2S(=O)(=O)N2CCCCC2)CC1 observed_result="> 100 µM (inactive)"
molecule=O=C(CC(=O)c1cccc2ccccc12)C(=O)Nc1ccc(Cl)cc1 observed_result="> 100 µM (inactive)"
molecule="O=C(NC1C(=O)NNC1c1cccc([N+](=O)[O-])c1)c1ccccc1 (stereo not given)" observed_result="> 100 µM (inactive)"
molecule="CCOC(=O)CCC(NC(=O)c1ccc(/N=C/c2nc3ccccc3nc2-c2ccccc2)cc1)C(=O)OCC (stereo not given)" observed_result="> 100 µM (inactive)"
molecule=N#Cc1nn(-c2ccc(Cl)cc2)c(=N)c2c(N)n3nc(-c4ccccc4)cc3nc12 observed_result="0.635 µM (active)"
molecule=Nc1ccc(S(=O)(=O)Nc2nc3ccccc3nc2Nc2ccc(S(N)(=O)=O)cc2)cc1 observed_result="17.5 µM (inactive)"
molecule=CN(COC(=O)C(C)(C)C)c1nc(N(C)COC(=O)C(C)(C)C)nc(N(C)COC(=O)C(C)(C)C)n1 observed_result="34.8 µM (inactive)"
molecule=O=C1C=CC(=O)c2c(O)nc(CBr)nc21 observed_result="> 100 µM (inactive)"
molecule=CSC1=Nc2ccccc2N(C)c2c1c(-c1ccccc1)nn2C observed_result="17 µM (inactive)"
molecule="CC(NC(=O)c1ccc(OP(=O)(OCC2=CC(=O)c3ccccc3C2=O)N(C)CCCCCl)cc1)c1ccc(OCC2CCCCC2)c(C(N)=O)c1 (stereo not given)" observed_result="13.4 µM (inactive)"
molecule="CC1(C)Oc2ccccc2OC1O (stereo not given)" observed_result="> 100 µM (inactive)"
molecule=O=c1oc2ccccc2cc1-c1cn2cc(Cl)ccc2n1 observed_result="1.44 µM (inactive)"
molecule=CCOC(=O)/C(=C\c1ccc(F)cc1)C(C)=O observed_result="29.1 µM (inactive)"
molecule="CC(C)(Br)C(Br)CCC1(C2CO2)CO1 (stereo not given)" observed_result="> 5 µM (inactive)"
molecule=COC1=CC(=O)NCCN1 observed_result="> 100 µM (inactive)"
molecule="CC1C(c2ccc(Cl)cc2)c2cc3c(cc2OC1N1CCOCC1)OCO3 (stereo not given)" observed_result="> 100 µM (inactive)"
molecule="N#Cc1ccccc1NC(=O)C(=O)C(C(=O)c1ccccc1-c1ccccc1)C1OC(=O)c2ccccc21 (stereo not given)" observed_result="14.3 µM (inactive)"
molecule="Clc1ccc(C2=C(c3ccccc3)C(c3ccc(Cl)cc3)N3C(=N[C@H]4CCCC[C@@H]43)N2)cc1 (stereo not given in full)" observed_result="19.9 µM (inactive)"
molecule="CC(N)CC(=O)O (stereo not given)" observed_result="> 5000 µM (inactive)"
molecule="CCOc1ccc(NC(=O)C(=O)C2C(=O)Nc3ccccc3[S+]2[O-])cc1 (stereo not given)" observed_result="> 100 µM (inactive)"
molecule="Cc1ccc(OCC(=O)N2N=C(c3ccccc3)CC2(O)c2ccccc2)cc1 (stereo not given)" observed_result="> 100 µM (inactive)"
molecule="COC(=O)C(=O)C(C(=O)OC)C(=O)C(=O)Nc1cc(Cl)c(Cl)cc1Cl (stereo not given)" observed_result="> 100 µM (inactive)"
molecule=O=C1c2cccnc2-c2nccc3ccnc1c23 observed_result="1.11 µM (active)"
molecule="CC1(C)C2CCC3(OCCO3)C1C1OC12 (stereo not given)" observed_result="> 100 µM (inactive)"
molecule=O=C1C=C(Br)c2c(-c3ccccc3)oc3cccc1c23 observed_result="20.2 µM (inactive)"
